test: Cytotoxicity against human SPC-A1 cells overexpressing maspin protein measured after 72 hrs by Celltiter-Glo assay; format: functional, cell-based; details: SPCA1, 72 h
assay.endpoint: IC50 (µM)

[
  {
    "record.smiles": "COC1=C(c2ccc(OC)cc2)C(=O)C=C(c2ccc(OC)cc2)C1=O",
    "assay.endpoint": "IC50",
    "units.of.measure": "µM",
    "relation.symbol": "=",
    "value.measured": 2
  },
  {
    "record.smiles": "COc1ccc(-c2c(OC)c(O)c(-c3ccc(OC)cc3)c3sc(CO)nc23)cc1",
    "assay.endpoint": "IC50",
    "units.of.measure": "µM",
    "relation.symbol": ">",
    "value.measured": 100
  },
  {
    "record.smiles": "COc1ccc(-c2cc(O)c(-c3ccc(OC)cc3)c(OC)c2OC)cc1",
    "assay.endpoint": "IC50",
    "units.of.measure": "µM",
    "relation.symbol": "=",
    "value.measured": 9.8
  },
  {
    "record.smiles": "COc1cccc2c1C(=O)c1c(O)c3c(c(O)c1C2=O)C[C@@](O)(C(=O)CO)C[C@@H]3O[C@H]1C[C@H](N)[C@H](O)[C@H](C)O1",
    "assay.endpoint": "IC50",
    "units.of.measure": "µM",
    "relation.symbol": "=",
    "value.measured": 0.18
  },
  {
    "record.smiles": "COc1ccc(-c2c3c(c(-c4ccc(OC)cc4)c(O)c2OC)SCC(=O)N3)cc1",
    "assay.endpoint": "IC50",
    "units.of.measure": "µM",
    "relation.symbol": ">",
    "value.measured": 100
  }
]

* * *

test system: HuCCT-1; experiment: Cytotoxicity against human HuCCT1 cells measured after 72 hrs by Celltiter-Glo assay; format: functional, cell-based; conditions: HuCCT-1, 72 h
Quick list: IC50 per entry.
assay.endpoint: IC50 (nM)

[
  {
    "record.smiles": "COc1ccc(-c2c(OC)c(O)c(-c3ccc(OC)cc3)c3sc(CO)nc23)cc1",
    "assay.endpoint": "IC50",
    "relation.symbol": ">",
    "value.measured": 100000
  },
  {
    "record.smiles": "COc1cccc2c1C(=O)c1c(O)c3c(c(O)c1C2=O)C[C@@](O)(C(=O)CO)C[C@@H]3O[C@H]1C[C@H](N)[C@H](O)[C@H](C)O1",
    "assay.endpoint": "IC50",
    "relation.symbol": "=",
    "value.measured": 48
  },
  {
    "record.smiles": "COC1=C(c2ccc(OC)cc2)C(=O)C=C(c2ccc(OC)cc2)C1=O",
    "assay.endpoint": "IC50",
    "relation.symbol": "=",
    "value.measured": 200
  },
  {
    "record.smiles": "COc1ccc(-c2c3c(c(-c4ccc(OC)cc4)c(O)c2OC)SCC(=O)N3)cc1",
    "assay.endpoint": "IC50",
    "relation.symbol": ">",
    "value.measured": 100000
  },
  {
    "record.smiles": "COc1ccc(-c2cc(O)c(-c3ccc(OC)cc3)c(OC)c2OC)cc1",
    "assay.endpoint": "IC50",
    "relation.symbol": ">",
    "value.measured": 100000
  }
]

Data origin: ChEMBL document CHEMBL4334532
